Field: protease stability score. Provide a value for each of the sequences that follow.
protocol-description: protease stability score; higher = more stable; yeast display proteolysis, trypsin and chymotrypsin;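 also: relative to predicted unfolded state with 0 unfolded-like and 1 meaning tenfold more protease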
One number for each entry.

Below, each entry is followed by its recorded protease stability score result.
SYHEKEALDLYRMTIHNYLTGDWKEWHRLFDPHVRIRIGDKELHGMENFAKWEEDLEKDLGVDHVEIRLRDMEVQGDKFTSDGELRLHIDGRTIRHKVEFHLEVINGRIKSHRINIH :: 1.04
SEEEHHDRLMTDFFIEIMRTGDEKEFIDLFDPHDRTHIDGVDAHGREIAVELLHLFLRKLGFDHIRVTDVHVYNGKVELHMRSDQGDKHVEVQIHSVVYNGKLQHLHVKIRTL :: 1.63
SEHHKLLEDFLHLMQEALHTGNEDFIAELADPNVRINWNGKETHGRENLRRMLHEWRERWGIDRIEFHMKSISVQGDKIDLEMQVHINGRHETMHVRITVINGRLKDVRYELR :: 1.66
SELEKLAEEMLELFIEIFLTGDWRTFLRLADPHTRLNVDGKNNHGREEVRRHLEEELRQMRWHDVKIHDFDVIGEKAHVRLRVDGIINGRRIDFEMELEITVVNGVIKDVRVRRR :: 1.48

# batch: return protease stability score for each of the 2 sequences below
1. SEMEDIAEEWAELILHLWHTGDEDKLWKLADPNTREHVNGRNLHGREEIVRIIVHEMVEMRIKFRPHDVRVQGDKVIIDGIKEIHIDGKEIRIRIEIVIVVINGRYHSSELTVH
2. DEDENLMRQFWETWEEALKTGDEHILHNLMDPNYRFIIGDKEHHGREAAEEFIRRVDHVTDIKFHRYRRIGDKIQIDGHLDGEINGKRNRYRSDIFVLKIDGRWFIHSVQIK

[1.04, 2.31]

# batch: return protease stability score for each of the 5 sequences below
1. DEDEKEATHWWRLLIKNIETGDEKSEKELLDPHARVEIGEFESVGRETVAEMWFRLMEHIRLKDSHEKDFDMQGDYMHVNGHVVGEYNGKHIKSDVRIILIVIDGRVKEVTVKIH
2. DEEEHTAHVAHKLWEDSLHTGNEDNHRKLLDPHARIIVNGRLLHGWEDVEKILKDLGIKVMHMELERIKVVGDKLRIVGHLETRFDGRTIRLREELVVRKFNGRWHIEEINIL
3. DEEEKDIRKALEWFWESFKTGDEDSVRKMLDPDTRIIYGDKEHHGRENASRFIHELKRRMGIKHTEIRLNSMEVQGDKVSFYTILILRFDGREIRIETHIEARKVDGRWFTTSIEFH
4. DEDDELSRKAREFTSEVLRTGDEHSLLRMADPNTRNIVGNKEEHGWEHFEHFVREHWRRFGITNVDVKLEDLRVVDGRIEADMRVRVNGVERTWHFLIRKIDGKWRMESIEIR
5. DEEKEEAEHFFHFFFHLLITGDEEQWFRLADPNMRVRVNGVLLHGREIWERLVQEIRVNHMHLDRMEIHVFNGRMDVYIIGHVRRIIGDKEETTTVHIRIVMFKVNGRWVIHAVEEDYR

1. 0.208
2. 1.24
3. 1.42
4. 0.416
5. 1.81

# batch: return protease stability score for each of the 6 sequences below
1. SEDEDHARLMFELLLRMITTGDEESLRELVDPNVRVSVDGVDLHGWDSLSKFLKHIRIRVDHSEMHDMRVIDGVLQANTHMQITVEFNGRRVQRQVETRVEVVKINGKWAIHRFSVH
2. TEEERIDHEYEERLKHSFETGDEETIKKMIDPNARVEIDGKDHHGREVMAHLISRIDVLHTVDTTDVSIQGDKINLNLRVHGHVNGKHIDRTLHVRIRKINGKWHIEHFKII
3. TEEHREIKESVEQWHKDLHTGNEEMLVRLMDPRMRLQIGDKTLHGREEATRWAREFHKRYDHIHDFKIKDYDHYGNYIIIIGTLDGIVDGQRVRTDVRLIFVKVNGRWTIESEEHE
4. SEDIDIAREMADIIIKYWETGDEDNVRQLMDPNVKFHIGDKVNIGREWMLEFVRHWKEHARMHLKVEDFRIVGDKIHVDTRIELNVNGREMHIDLHIHLRIVNGRLKSSHIEHR
5. DERHELTRRVAVLWLHIFMTGDEDLFEKLADPTTRQEVLFNGRIYSLVGREEVSRWLREMVHELRFRHIEDKDKEIQGDKVLIDGILHIEAENHSTTIRSRIVLIVVNGKIHTIKFEFH
6. DEDREHVKWMIEKEIHAWRTGDEDELRKMLDPNVKFEQGDKRIHGREILMERMRKLGADHVEFQLHDIELQGEKVLLFIELRIHVNGRDIRLEIIIYLDKVNGQWHVRHYEIR

1: 2.55; 2: 1.04; 3: 0.346; 4: 1.19; 5: 1.55; 6: 0.745

# batch: return protease stability score for each of the 5 sequences below
1. DESEDAVRKSMELWEESMRTGNEERLIELVDPNVRLDINGQIYHGWSQFVEVIFNEFRHARLESIEIHEVRLQGDKIRSRTTLVIRINGRLKHLDVRFIVKKVDGRWQIHSEERE
2. SEEEVQFRRFFEAFLHFWETGDEKMLKTLLDPHVKFTVHFENHRSHYHGREEFTKFLHELGVKHFELDRVRIEFQGDKIRIEIDGVLLYDGRFHESHIILIIVKVDGRWVIHQLHIQIE
3. SEEEIMTKLAEKILKMHWDTGDERIRKELADPHVRIDQGDFNLHGWEVLHLTLNLLGVTKFRLHILEIHDVSMQGDKIEMDIEVHMHVNGRKISFRVQVHSIKIDGKWKQHSLIIH
4. DEEEESSHNALKYWMHSLITGDEHTIERLADPHVLMVVNGKTFHGMERFHEALHEFNERIDHIERIEIKDMKIFDGRVIVELKVHGRIGDKRHELETYLVILKYDGKWHLHSISVK
5. SDKDKEFEKLFREYLRDLLTGDEESLRRLIDPNARFSYEVGDKTEERHGREEAVRWIIEIRIHSFRLRNSTYIGDKMHLEVESDGQYDGKRRFTEVHIEIILINGRVHEVHVWYV

1. 1.31
2. 2.15
3. 0.153
4. 0.964
5. 1.01
